Molecular target: T1, HLA-DP4 (human, UniProt P20036 29-222; P04440 30-225)
T1 chain 1: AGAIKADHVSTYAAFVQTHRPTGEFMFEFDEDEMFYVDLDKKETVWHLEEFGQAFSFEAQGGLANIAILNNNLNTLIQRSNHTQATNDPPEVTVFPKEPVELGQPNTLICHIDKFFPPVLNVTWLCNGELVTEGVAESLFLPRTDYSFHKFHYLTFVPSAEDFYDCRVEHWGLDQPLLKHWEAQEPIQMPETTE
T1 chain 2: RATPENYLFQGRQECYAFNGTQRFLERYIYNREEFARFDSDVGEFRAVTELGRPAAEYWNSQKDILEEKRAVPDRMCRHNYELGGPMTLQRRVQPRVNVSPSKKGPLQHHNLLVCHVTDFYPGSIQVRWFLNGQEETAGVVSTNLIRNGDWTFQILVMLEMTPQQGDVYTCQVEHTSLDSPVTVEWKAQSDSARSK
Assay: competition
test_readout: pIC50
Notebook: values listed as pIC50 are -log10 of the concentration (mol/L).

**Q:** // query pIC50 value for entry PGCNKRYFKLSHLQMHSRKHT [WT1328-348]
**A:** 4.62

From: patent US20260042827A1
